Target: CD28 (Homo sapiens, UniProt P10747)
Assay: Jurkat/IL2 + K562/OKT3/PD-L1 reporter assay
Assay type: cell-based
Parameters: host or cells: Jurkat cells expressing an IL-2-luciferase reporter
Conditions: Table E8; K562/OKT3/PD-L1 aAPC; 50 nM
endpoint: Relative Luciferase Units (RLU), CD80-Fe Cone 50 nM

# molecule, valueReported
rows = [
    ("V22D/E35D/M47L/L85Q (protein, CD80 v261 ECD) VIHVTKEVKEVATLSCGHNVSDEELAQTRIYWQKDKKMVLTMMSGDLNIWPEYKNRTIFDITNNLSIVILALRPSDEGTYECVVQKYEKDAFKREHLAEVTLSVKADFPTPSISDFETPTSNIRRIICSTSGGFPEPHLSWLENGEELNAINTTVSQDPETELYAVSSKLDFNMTTNHSFMCLIKYGHLRVNQTFNWNTTKQEHFPDN", 1142),
    ("Q33L/E35D/M47I/N48D/A71G (protein, UniProt P33681 35-288, looked up, variant Q33L E35D M47I N48D A71G) T-lymphocyte activation …: VIHVTKEVKEVATLSCGHNVSVEELAQTRIYWLKDKKMVLTMMSGDIDIWPEYKNRTIFDITNNLSIVILGLRPSDEGTYECVVLKYEKDAFKREHLAEVTLSVKADFPTPSISDFEIPTSNIRRIICSTSGGFPEPHLSWLENGEELNAINTTVSQDPETELYAVSSKLDFNMTTNHSFMCLIKYGHLRVNQTFNWNTTKQEHFPDNLLPSWAITLISVNGIFVICCLTYCFAPRCRERRRNERLRRESVRPV", 213),
    ("H18Y/E35D/N48K (protein, UniProt P33681 35-288, looked up, variant H18Y E35D N48K) T-lymphocyte activation …: VIHVTKEVKEVATLSCGYNVSVEELAQTRIYWQKDKKMVLTMMSGDMKIWPEYKNRTIFDITNNLSIVILALRPSDEGTYECVVLKYEKDAFKREHLAEVTLSVKADFPTPSISDFEIPTSNIRRIICSTSGGFPEPHLSWLENGEELNAINTTVSQDPETELYAVSSKLDFNMTTNHSFMCLIKYGHLRVNQTFNWNTTKQEHFPDNLLPSWAITLISVNGIFVICCLTYCFAPRCRERRRNERLRRESVRPV", 1230),
    ("E35D/A71D/L72V/R73H/E81K (protein, UniProt P33681 35-288, looked up, variant E35D A71D L72V R73H E81K) T-lymphocyte activation …: VIHVTKEVKEVATLSCGHNVSVEELAQTRIYWQKDKKMVLTMMSGDMNIWPEYKNRTIFDITNNLSIVILDVHPSDEGTYKCVVLKYEKDAFKREHLAEVTLSVKADFPTPSISDFEIPTSNIRRIICSTSGGFPEPHLSWLENGEELNAINTTVSQDPETELYAVSSKLDFNMTTNHSFMCLIKYGHLRVNQTFNWNTTKQEHFPDNLLPSWAITLISVNGIFVICCLTYCFAPRCRERRRNERLRRESVRPV", 282),
    ("Q27H/E35D/D46V/M47L/A71G (protein, UniProt P33681 35-288, looked up, variant Q27H E35D D46V M47L A71G) T-lymphocyte activation …: VIHVTKEVKEVATLSCGHNVSVEELAHTRIYWQKDKKMVLTMMSGVLNIWPEYKNRTIFDITNNLSIVILGLRPSDEGTYECVVLKYEKDAFKREHLAEVTLSVKADFPTPSISDFEIPTSNIRRIICSTSGGFPEPHLSWLENGEELNAINTTVSQDPETELYAVSSKLDFNMTTNHSFMCLIKYGHLRVNQTFNWNTTKQEHFPDNLLPSWAITLISVNGIFVICCLTYCFAPRCRERRRNERLRRESVRPV", 978),
    ("E35D/M38T/D46E/M47V/N48S (protein, UniProt P33681 35-288, looked up, variant E35D M38T D46E M47V N48S) T-lymphocyte activation …: VIHVTKEVKEVATLSCGHNVSVEELAQTRIYWQKDKKTVLTMMSGEVSIWPEYKNRTIFDITNNLSIVILALRPSDEGTYECVVLKYEKDAFKREHLAEVTLSVKADFPTPSISDFEIPTSNIRRIICSTSGGFPEPHLSWLENGEELNAINTTVSQDPETELYAVSSKLDFNMTTNHSFMCLIKYGHLRVNQTFNWNTTKQEHFPDNLLPSWAITLISVNGIFVICCLTYCFAPRCRERRRNERLRRESVRPV", 1315),
    ("V22A/E35D/M47I/Y87N (protein, CD80 v253 ECD) VIHVTKEVKEVATLSCGHNVSAEELAQTRIYWQKDKKMVLTMMSGDINIWPEYKNRTIFDITNNLSIVILALRPSDEGTYECVVLKNEKDAFKREHLAEVTLSVKADFPTPSISDFETPTSNIRRIICSTSGGFPEPHLSWLENGEELNAINTTVSQDPETELYAVSSKLDFNMTTNHSFMCLIKYGHLRVNQTFNWNTTKQEHFPDN", 1388),
    ("E35D/T41S/M47V/A71G/K89N (protein, UniProt P33681 35-288, looked up, variant E35D T41S M47V A71G K89N) T-lymphocyte activation …: VIHVTKEVKEVATLSCGHNVSVEELAQTRIYWQKDKKMVLSMMSGDVNIWPEYKNRTIFDITNNLSIVILGLRPSDEGTYECVVLKYENDAFKREHLAEVTLSVKADFPTPSISDFEIPTSNIRRIICSTSGGFPEPHLSWLENGEELNAINTTVSQDPETELYAVSSKLDFNMTTNHSFMCLIKYGHLRVNQTFNWNTTKQEHFPDNLLPSWAITLISVNGIFVICCLTYCFAPRCRERRRNERLRRESVRPV", 1023),
    ("E35D/L85Q/K93T/E95V/L97Q (protein, UniProt P33681 35-288, looked up, variant E35D L85Q K93T E95V L97Q) T-lymphocyte activation …: VIHVTKEVKEVATLSCGHNVSVEELAQTRIYWQKDKKMVLTMMSGDMNIWPEYKNRTIFDITNNLSIVILALRPSDEGTYECVVQKYEKDAFTRVHQAEVTLSVKADFPTPSISDFEIPTSNIRRIICSTSGGFPEPHLSWLENGEELNAINTTVSQDPETELYAVSSKLDFNMTTNHSFMCLIKYGHLRVNQTFNWNTTKQEHFPDNLLPSWAITLISVNGIFVICCLTYCFAPRCRERRRNERLRRESVRPV", 315),
]
